src = patent US4521417A

test system: ulcer; assay: Pharmacological Test 1: pylorus-ligation ulcer in fasted rats, drug intraduodenal, ulcer area after 8 h; type: in vivo, STD Wistar-strain male rats; conditions: Rattus norvegicus, pylorus ligated, n=15 rats, read-out: Percent inhibition (ulcer area)
Where a name gives a salt, the structure may show the parent alone.
inhibition in vivo at 300 mg/kg below 70% gives 0.0; inhibition in vivo at 300 mg/kg at or above it gives 1.0.

1. CC(C)=CCC/C(C)=C/CC/C(C)=C/CC/C(C)=C/CCC(=O)N1CCN(C(C)C)CC1 [Compound (5)] | 0.0
2. NC[C@H]1CC[C@H](C(=O)Oc2ccc(CCC(=O)O)cc2)CC1 [Cetraxate hydrochloride, reference compound] | 0.0
3. CC(C)=CCCC(C)=CCCC(C)=CCCC(C)=CCCC(=O)N1CCNC(C)C1 (stereo not drawn) [Compound (13), methyl-N-geranylgeranylacetyl piperazine] | 1.0
4. CCCN1CCN(C(=O)CC/C=C(\C)CC/C=C(\C)CC/C=C(\C)CCC=C(C)C)CC1 [Compound (4)] | 0.0
5. CC(C)=CCC/C(C)=C/CC/C(C)=C/CC/C(C)=C/CCC(=O)N1CCN(C)CC1 [Compound (2)] | 1.0
6. CC(C)=CCC/C(C)=C/CC/C(C)=C/CC/C(C)=C/CCC(=O)N1CCN(CCCBr)CC1 [Compound (11)] | 0.0
7. CC(C)=CCC/C(C)=C/CC/C(C)=C/CC/C(C)=C/CCC(=O)N1CCN(CCCCCl)CC1 [Compound (10)] | 0.0
